- Test system: PfAP2-HC AP2 domain (GST-tagged)
- Test method notes: gcPBM binding intensity (ln(normalized median fluorescence intensity)); higher = stronger DNA binding
The full ranking holds about 25,000 sequences; the median of “ln(normalized median fluorescence intensity)” is about 9.7, and the highest 2% start at about 11. Shown is part of a subset that was picked to be rich in the highest values.
Label 0 (no) if gcPBM binding intensity (ln) falls below 10; label 1 (yes) in every other case.

{"Sequence": "ATTAATTATATATATACACACACATACACCCAAATA [CACACA_site9126]", "Tested on": "PfAP2-HC AP2 domain (GST-tagged)", "Assigned label": "1 (yes)"}
{"Sequence": "CATATAAATAAATACACACACACACGCCTTATAATT [CACACA_site7830]", "Tested on": "PfAP2-HC AP2 domain (GST-tagged)", "Assigned label": "1 (yes)"}
{"Sequence": "TTTGGTTATATTTAAAAAAGACTAATGAAAATTAAA [XGTACX_negctrl_site526]", "Tested on": "PfAP2-HC AP2 domain (GST-tagged)", "Assigned label": "0 (no)"}
{"Sequence": "TAAATATAAAAATGCACACACACAAAAAAAAAAAAA [CACACA_site895]", "Tested on": "PfAP2-HC AP2 domain (GST-tagged)", "Assigned label": "1 (yes)"}
{"Sequence": "ATAGCATATATTTTTTGTACATATGTTATATATATA [XGTACX_site2184]", "Tested on": "PfAP2-HC AP2 domain (GST-tagged)", "Assigned label": "0 (no)"}

Ask | Please check the record TTTATTTATTAAGAATGTACATGTATTTGTTAAATA [XGTACX_site4465] and state if its gcPBM binding intensity (ln) is at or above 10.
Reply | 0 (no)

Ask | gcPBM binding intensity (ln) >= 10 for AATAGTACAAAAAAAAAAAAAAAAAAAAAAAAAAAA [CACACA_negctrl_site1376] ?
Reply | 0 (no)

Ask | Hi team, for AATAAATATATATACACACCCATATATATATATATA [CACACA_site2595] , is the recorded gcPBM binding intensity (ln) at or above 10?
Reply | 0 (no)

Ask | Could you please find out whether ATAAATACTAGGCACACACACATATATATATATATA [CACACA_site2080] has gcPBM binding intensity (ln) that meets 10 or exceeds it?
Reply | 1 (yes)

Ask | Check if gcPBM binding intensity (ln) >= 10 (inclusive). Item: ATATAAAAAAATAATAAATAAATAAAAAGATTTCTT [XGTACX_negctrl_site110]
Reply | 0 (no)

Ask | Hello, I need to know if TTGTTTTTTTTTTCTATAAGCATAAAAATGATATAA [XGTACX_negctrl_site356] has measured gcPBM binding intensity (ln) not below 10. Thanks!
Reply | 0 (no)

Ask | Exam item: decide whether the reported gcPBM binding intensity (ln) for AAAAAAAAAAAACACACACACATAGACCTCCAATAG [CACACA_site3562] is at least 10.
Reply | 1 (yes)

Ask | Evaluate TATATTTAAGTACATAAATAAGCCCATTTACATACA [CACACA_negctrl_site1224] : gcPBM binding intensity (ln) at minimum 10?
Reply | 0 (no)

* * *

- Test system: PfAP2-HC AP2 domain (GST-tagged)
- Test method notes: gcPBM binding intensity (ln(normalized median fluorescence intensity)); higher = stronger DNA binding
The full ranking holds about 25,000 sequences; the median of “ln(normalized median fluorescence intensity)” is about 9.7, and the highest 2% start at about 11. The list comes from a sample in which the highest values are over-represented; it also holds close analogues and randomly drawn sequences.
Recorded metric: gcPBM binding intensity (ln)
Numbers only.

A selection of reference data follows.
{"Sequence": "TACATGAATATATAAAGAAAAAAAAAAAAACACACA [XGTACX_negctrl_site350]", "Number": 9.79}
{"Sequence": "TCAAAGCACAGATACACACACATATATATATATATA [CACACA_site287]", "Number": 10.1}
{"Sequence": "CACCCATACAGACATACACACACATATATATTAATA [CACACA_site8077]", "Number": 10.2}
{"Sequence": "TATATCAAAATACATACACACATTTGTATATACATT [CACACA_site2696]", "Number": 10}
{"Sequence": "GCACTAAAAAAATAAACACACAGATTTATATAATAT [CACACA_site1381]", "Number": 9.79}
{"Sequence": "AAATTACAAATACAAACACACAAATGTTTTTCATTC [CACACA_site3552]", "Number": 9.77}
{"Sequence": "AATAAAAAAGAATATACACACATAAATATAAAATAT [CACACA_site683]", "Number": 10}
{"Sequence": "TATATACATAGACACCCACACACAAAAAAAAAAAAA [CACACA_site8186]", "Number": 10.2}
{"Sequence": "TTTTTTAATATTTATACATGCATGCCGATTACTATA [TGCATGCA_site26]", "Number": 9.87}
{"Sequence": "TTATATATTTTTATGTGTACTTATATATATATATAT [XGTACX_site6211]", "Number": 9.77}

// batch mode: one gcPBM binding intensity (ln) value per listed entry
1. ATTTTTTTTATTTTTTCAATATATATATATATATAT [CACACA_negctrl_site1444]
2. TATATAACATAATATACACACATTATGTGCGTAATT [CACACA_site4073]

Reply |
9.74
9.75

* * *

For each of the sequences below, state its gcPBM binding intensity (ln).
- Tested on: PfAP2-HC AP2 domain (GST-tagged)
- Test method notes: gcPBM binding intensity (ln(normalized median fluorescence intensity)); higher = stronger DNA binding
The full ranking holds about 25,000 sequences; the median of “ln(normalized median fluorescence intensity)” is about 9.7, and the highest 2% start at about 11. The list comes from a sample in which the highest values are over-represented; it also holds close analogues and randomly drawn sequences.
Give bare numbers.

Some sequences with known gcPBM binding intensity (ln) results, for comparison:
{"Sequence": "AATAGCTAGCTGTGCACACAAACATATTTTCCAAAT [CACACA_site880]", "gcPBM binding intensity (ln)": 9.91}
{"Sequence": "ATTTGAAATGCATGAACACACACAGCTATAAATGCA [CACACA_site8229]", "gcPBM binding intensity (ln)": 9.82}
{"Sequence": "ATACATATATATATATGTACACACATTAATAAAAAA [XGTACX_site6874]", "gcPBM binding intensity (ln)": 9.89}
{"Sequence": "GTCATATTAATATGTACACACATATTTATATTTATA [CACACA_site6798]", "gcPBM binding intensity (ln)": 9.83}

# next sequence below
Ask | Item under review: ACATTCACAAAATTTTGTACACATATATATATATAT [XGTACX_site3518] . Reported gcPBM binding intensity (ln)?
Reply | 9.96

* * *

- Test system: PfAP2-HC AP2 domain (GST-tagged)
- Test method notes: gcPBM binding intensity (ln(normalized median fluorescence intensity)); higher = stronger DNA binding
Over roughly 25,000 sequences, “ln(normalized median fluorescence intensity)” has its median near 9.7; the highest 2% begin near 11. The sample as a whole holds a higher share of the highest values than the screen did.
If the reported gcPBM binding intensity (ln) equals or exceeds 10, assign Condition met. If not, assign Condition not met.

Please review the following examples before continuing.
{"Sequence": "CACCCACTAATAAACACACACATATATATATATATA [CACACA_site389]", "Assigned label": "Condition met"}
{"Sequence": "TATTAATTTTTTTTTTTTTTTTTTTTTTTTTTTTTT [CACACA_negctrl_site1329]", "Assigned label": "Condition not met"}
{"Sequence": "AATATTTTGAACAACAGTACTCTTTCTTTCTTTCTT [XGTACX_site7212]", "Assigned label": "Condition not met"}

Ask | Please tell me: is the sequence CTTATATTTAGACACACACACAATAAAATGAAAAAA [CACACA_site1031] at or over 10 in terms of gcPBM binding intensity (ln)?
Reply | Condition met

Ask | Is gcPBM binding intensity (ln) at least 10? Consider CAAAGACACAAACACACACACACATACATACATACA [CACACA_site453]
Reply | Condition met

Ask | Hi team, for CCCACTAAAAAACACACACACACACCCATATATATA [CACACA_site6140] , is the recorded gcPBM binding intensity (ln) at or above 10?
Reply | Condition met

Ask | Hi, just wondering whether AATATATTTTAATACACACACACATATATATATATA [CACACA_site5969] shows gcPBM binding intensity (ln) of 10 or higher.
Reply | Condition met

Ask | Form field: gcPBM binding intensity (ln) at least 10? Entry: ATATATTTTTAGCACAGTACAATATAATTAAATATA [XGTACX_site6779]
Reply | Condition not met

Ask | Could you tell me if the measured gcPBM binding intensity (ln) of AAAAAAAAAAGACACACACACACACTAATACATACA [CACACA_site6473] reaches 10 or more?
Reply | Condition met

Ask | Hi team, for AAAAAAAAAAAACACACACACACACTAATACATACA [CACACA_site8135] , is the recorded gcPBM binding intensity (ln) at or above 10?
Reply | Condition met

Ask | Decide: gcPBM binding intensity (ln) of ACATATATATTTATATGTACATATATTTATATATAT [XGTACX_site7469] >= 10?
Reply | Condition not met
